- system: CB2 receptor (Homo sapiens, UniProt P34972)
- Sequence (P34972 whole entry): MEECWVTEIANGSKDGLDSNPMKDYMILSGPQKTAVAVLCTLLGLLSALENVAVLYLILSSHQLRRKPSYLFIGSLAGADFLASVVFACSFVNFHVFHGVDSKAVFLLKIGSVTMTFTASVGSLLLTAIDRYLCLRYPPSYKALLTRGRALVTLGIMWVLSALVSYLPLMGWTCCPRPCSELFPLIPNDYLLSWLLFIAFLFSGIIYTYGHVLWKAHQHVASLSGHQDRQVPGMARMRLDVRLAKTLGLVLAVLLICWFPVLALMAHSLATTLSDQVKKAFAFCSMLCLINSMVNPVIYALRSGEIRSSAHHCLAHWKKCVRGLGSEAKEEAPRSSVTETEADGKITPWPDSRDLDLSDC
- measurementNotes: [3H]CP-55,940 radioligand competition binding, CB2
- Design: host or cells: cell membrane preparations
- conditionSet: [3H]CP-55,940 displacement; read-out: Ki (CB2)
attributeMeasured: pKi
Give bare numbers, as −log10 of the molar value.

Below: 5 compounds and their reported pKi.
In [3]: df
Out[3]:
                            smilesstructure  assayresult
0  Cc1ccc(C(NC(=O)Cc2ccc(Cl)cc2)NC(=O)Cc2ccc(Cl)cc2)cc1         6.34
1  CCN(CC)c1ccc(CN(c2ccc(Cl)cc2)S(=O)(=O)c2ccc(OC)cc2)cc1         7.85
2  O=C(Cc1ccccc1)NC(NC(=O)Cc1ccccc1)c1ccccc1         5.00
3  CCN(CC)c1ccc(C(NC(=O)C(C)(C)C)NC(=O)C(C)(C)C)cc1         5.45
4  CCN(CC)c1ccc(C(NC(=O)Cc2ccccc2)NC(=O)Cc2ccccc2)cc1         7.19

API: the following record is the query input.
IN: Return pKi measured with CB2 receptor (Homo sapiens, UniProt P34972) given this compound: O=C(Cc1ccccc1)NC(NC(=O)Cc1ccccc1)c1ccc(Br)cc1
OUT: 5.65
